This listing pairs sequences with measured Normalized average relative binding affinity (ARB), H-2 Db.
- experimental_target: H-2 D^b (Mus musculus, UniProt P01899)
- Assay type: binding
observed_property: Normalized average relative binding affinity (ARB), H-2 Db

- QXXXXXXXX [3064.0014]: 0.060
- XGXXXXXXX [3064.0026]: 0.42
- XVXXXXXXX [3064.0038]: 0.20
- XIXXXXXXX [3064.0028]: 0.076
- XKXXXXXXX [3064.0029]: 0.052
- XXXDXXXXX [3064.0063]: 0.072
- XXPXXXXXX [3064.0053]: 0.38
- XXLXXXXXX [3064.0050]: 1.0
- XRXXXXXXX [3064.0035]: 0.036
- XXGXXXXXX [3064.0046]: 0.13
- XXTXXXXXX [3064.0057]: 0.057
- GXXXXXXXX [3064.0006]: 0.096
- XXFXXXXXX [3064.0045]: 0.099
- TXXXXXXXX [3064.0017]: 0.096

----------
- experimental_target: HLA A*3201 (Homo sapiens, UniProt P04439, A270S/D101S/D185E/E176V/E277Q/F133L/G103R/G107R/G231S/H175R/I121M/I218V/I322F/K168Q/L105A/L300P/L318F/M331R/P208A/P217A/Q94H/R106L/R138Q/S129P/T104I/T323A/T345S/V100E/V321M/V358M)
- procedure_details: biochemical
- Type: binding
Entries whose Normalized average relative binding affinity (ARB), HLA A*3201 is below 0.1 take Met; entries at or above 0.1 take Not met.

• XXNXXXXXX [3064.0052] = Not met
• XXFXXXXXX [3064.0045] = Not met
• WXXXXXXXX [3064.0019] = Met
• XVXXXXXXX [3064.0038] = Not met
• XXTXXXXXX [3064.0057] = Not met
• XXIXXXXXX [3064.0048] = Not met
• XXHXXXXXX [3064.0047] = Not met
• NXXXXXXXX [3064.0012] = Not met
• XXQXXXXXX [3064.0054] = Not met
• IXXXXXXXX [3064.0008] = Not met
• DXXXXXXXX [3064.0003] = Met
• XTXXXXXXX [3064.0037] = Not met
• XXGXXXXXX [3064.0046] = Not met
• MXXXXXXXX [3064.0011] = Not met
• XAXXXXXXX [3064.0021] = Not met
• XCXXXXXXX [3064.0022] = Met
• KXXXXXXXX [3064.0009] = Not met
• HXXXXXXXX [3064.0007] = Not met
• XPXXXXXXX [3064.0033] = Met
• XXRXXXXXX [3064.0055] = Not met
• XFXXXXXXX [3064.0025] = Met
• XXAXXXXXX [3064.0041] = Not met
• XQXXXXXXX [3064.0034] = Not met
• XXLXXXXXX [3064.0050] = Not met
• LXXXXXXXX [3064.0010] = Not met
• XXYXXXXXX [3064.0060] = Not met
• GXXXXXXXX [3064.0006] = Not met
• XKXXXXXXX [3064.0029] = Met
• XXEXXXXXX [3064.0044] = Not met
• CXXXXXXXX [3064.0002] = Not met
• RXXXXXXXX [3064.0015] = Not met
• VXXXXXXXX [3064.0018] = Not met
• XXVXXXXXX [3064.0058] = Not met
• XXDXXXXXX [3064.0043] = Met
• XYXXXXXXX [3064.0040] = Met
• XGXXXXXXX [3064.0026] = Met
• XXKXXXXXX [3064.0049] = Met
• XMXXXXXXX [3064.0031] = Not met
• XXCXXXXXX [3064.0042] = Not met
• TXXXXXXXX [3064.0017] = Not met
• QXXXXXXXX [3064.0014] = Not met
• XHXXXXXXX [3064.0027] = Met
• XEXXXXXXX [3064.0024] = Met
• XXXAXXXXX [3064.0061] = Not met
• XXXDXXXXX [3064.0063] = Not met
• XXMXXXXXX [3064.0051] = Not met
• XXSXXXXXX [3064.0056] = Not met
• YXXXXXXXX [3064.0020] = Not met
• EXXXXXXXX [3064.0004] = Not met
• AXXXXXXXX [3064.0001] = Not met
• SXXXXXXXX [3064.0016] = Not met
• XWXXXXXXX [3064.0039] = Met
• XLXXXXXXX [3064.0030] = Not met
• XDXXXXXXX [3064.0023] = Met
• PXXXXXXXX [3064.0013] = Met
• XNXXXXXXX [3064.0032] = Met
• XIXXXXXXX [3064.0028] = Not met
• XXXCXXXXX [3064.0062] = Not met
• XSXXXXXXX [3064.0036] = Not met
• XRXXXXXXX [3064.0035] = Met
• XXPXXXXXX [3064.0053] = Not met
• FXXXXXXXX [3064.0005] = Met
• XXWXXXXXX [3064.0059] = Not met
